- Measurement notes: Retention time at 35 mM
- Format: ADME
- Test settings: 35000 µM
Rule: measured Retention time below 4 min gets true; anything equal to or greater than 4 min gets false.

[
  {
    "Structure": "COc1cc(NC(C)=O)c([N+](=O)[O-])cc1-c1nc(C)c(-c2cccnc2)[nH]1",
    "Discrete label": "false"
  },
  {
    "Structure": "Cc1[nH]c(-c2ccccc2F)nc1-c1cccnc1",
    "Discrete label": "false"
  },
  {
    "Structure": "COc1cc(NC(C)=O)c(Cl)cc1-c1nc(C)c(-c2cccnc2)[nH]1",
    "Discrete label": "false"
  },
  {
    "Structure": "Cc1nc2cc(-c3nc(C)c(-c4cccnc4)[nH]3)c(C)cc2[nH]1",
    "Discrete label": "true"
  },
  {
    "Structure": "Cc1[nH]c(-c2ccccc2N)nc1-c1cccnc1",
    "Discrete label": "true"
  },
  {
    "Structure": "CSc1ccccc1-c1nc(C)c(-c2cccnc2)[nH]1",
    "Discrete label": "false"
  },
  {
    "Structure": "Cc1nc2cc(Cl)c(-c3nc(C)c(-c4cccnc4)[nH]3)cc2[nH]1",
    "Discrete label": "true"
  },
  {
    "Structure": "COc1c(-c2nc(C)c(-c3cccnc3)[nH]2)cc2nc(O)[nH]c2c1Cl",
    "Discrete label": "true"
  },
  {
    "Structure": "COc1cc2[nH]c(C)nc2cc1-c1nc(C)c(-c2cccnc2)[nH]1",
    "Discrete label": "true"
  },
  {
    "Structure": "COc1c(-c2nc(C)c(-c3cccnc3)[nH]2)ccc2[nH]c(C)nc12",
    "Discrete label": "true"
  }
]

====

- Test system: Rattus norvegicus
- Measurement notes: Tested for inhibitory activity on rat platelet aggregation induced by collagen measured after 1 hr of oral administration of compound (10 mg/kg) in rat.
- Type: functional
Use 20% as the dividing line for Inhibition, with the line itself on the rule met side and lower values as rule not met.

[
  {
    "Structure": "COc1ccccc1-c1nc(C)c(-c2cccnc2)[nH]1",
    "Discrete label": "rule met"
  },
  {
    "Structure": "COc1cc(OC)c(-c2nc(C)c(-c3cccnc3)[nH]2)cc1NC(C)=O",
    "Discrete label": "rule met"
  },
  {
    "Structure": "COc1c(-c2nc(C)c(-c3cccnc3)[nH]2)ccc2[nH]c(C)nc12",
    "Discrete label": "rule not met"
  },
  {
    "Structure": "Cc1ccccc1-c1nc(C)c(-c2cccnc2)[nH]1",
    "Discrete label": "rule not met"
  },
  {
    "Structure": "COc1cc2[nH]c(C)nc2cc1-c1nc(C)c(-c2cccnc2)[nH]1",
    "Discrete label": "rule met"
  },
  {
    "Structure": "Cc1[nH]c(-c2ccccc2N)nc1-c1cccnc1",
    "Discrete label": "rule met"
  },
  {
    "Structure": "Cc1nc2cc(Cl)c(-c3nc(C)c(-c4cccnc4)[nH]3)cc2[nH]1",
    "Discrete label": "rule not met"
  },
  {
    "Structure": "Cc1nc2cc(-c3nc(C)c(-c4cccnc4)[nH]3)c(C)cc2[nH]1",
    "Discrete label": "rule not met"
  },
  {
    "Structure": "CNC(=O)Nc1ccccc1-c1nc(C)c(-c2cccnc2)[nH]1",
    "Discrete label": "rule met"
  },
  {
    "Structure": "COc1cc2c(cc1-c1nc(C)c(-c3cccnc3)[nH]1)nc(O)n2C",
    "Discrete label": "rule not met"
  },
  {
    "Structure": "Cc1[nH]c(-c2ccccc2Cl)nc1-c1cccnc1",
    "Discrete label": "rule not met"
  },
  {
    "Structure": "COc1cc(NC(C)=O)c([N+](=O)[O-])cc1-c1nc(C)c(-c2cccnc2)[nH]1",
    "Discrete label": "rule met"
  },
  {
    "Structure": "COc1c(-c2nc(C)c(-c3cccnc3)[nH]2)cc(Cl)c2[nH]c(CCC(=O)O)nc12",
    "Discrete label": "rule not met"
  },
  {
    "Structure": "CCOc1ccccc1-c1nc(C)c(-c2cccnc2)[nH]1",
    "Discrete label": "rule met"
  },
  {
    "Structure": "COc1c(-c2nc(C)c(-c3cccnc3)[nH]2)cc(Cl)c2[nH]c(C)nc12",
    "Discrete label": "rule met"
  },
  {
    "Structure": "CSc1ccccc1-c1nc(C)c(-c2cccnc2)[nH]1",
    "Discrete label": "rule met"
  },
  {
    "Structure": "COc1cc(NC(C)=O)c(Cl)cc1-c1nc(C)c(-c2cccnc2)[nH]1",
    "Discrete label": "rule met"
  },
  {
    "Structure": "COc1c(-c2nc(C)c(-c3cccnc3)[nH]2)cc2nc(C)[nH]c2c1Cl",
    "Discrete label": "rule met"
  },
  {
    "Structure": "Cc1[nH]c(-c2ccccc2F)nc1-c1cccnc1",
    "Discrete label": "rule met"
  },
  {
    "Structure": "COc1c(-c2nc(C)c(-c3cccnc3)[nH]2)cc2nc(O)[nH]c2c1Cl",
    "Discrete label": "rule not met"
  },
  {
    "Structure": "CCOC(=O)COc1ccccc1-c1nc(C)c(-c2cccnc2)[nH]1",
    "Discrete label": "rule not met"
  }
]

====

- Measurement notes: Retention time at 30 mM
- Type: ADME
- Test settings: 30000 µM
Class (required): determined from Retention time; valid ranges are Low: < 3 min; Mid: ≥ 3 min and < 6 min; High: ≥ 6 min

[
  {
    "Structure": "COc1c(-c2nc(C)c(-c3cccnc3)[nH]2)cc2nc(O)[nH]c2c1Cl",
    "Discrete label": "Low"
  },
  {
    "Structure": "CCOc1ccccc1-c1nc(C)c(-c2cccnc2)[nH]1",
    "Discrete label": "Mid"
  },
  {
    "Structure": "CNC(=O)Nc1ccccc1-c1nc(C)c(-c2cccnc2)[nH]1",
    "Discrete label": "Mid"
  },
  {
    "Structure": "COc1cc(NC(C)=O)c([N+](=O)[O-])cc1-c1nc(C)c(-c2cccnc2)[nH]1",
    "Discrete label": "High"
  },
  {
    "Structure": "COc1c(-c2nc(C)c(-c3cccnc3)[nH]2)cc(Cl)c2[nH]c(CCC(=O)O)nc12",
    "Discrete label": "Mid"
  },
  {
    "Structure": "COc1cc(OC)c(-c2nc(C)c(-c3cccnc3)[nH]2)cc1NC(C)=O",
    "Discrete label": "Low"
  },
  {
    "Structure": "CSc1ccccc1-c1nc(C)c(-c2cccnc2)[nH]1",
    "Discrete label": "High"
  },
  {
    "Structure": "COc1ccccc1-c1nc(C)c(-c2cccnc2)[nH]1",
    "Discrete label": "Mid"
  },
  {
    "Structure": "COc1cc2c(cc1-c1nc(C)c(-c3cccnc3)[nH]1)nc(O)n2C",
    "Discrete label": "Low"
  },
  {
    "Structure": "CCOC(=O)COc1ccccc1-c1nc(C)c(-c2cccnc2)[nH]1",
    "Discrete label": "High"
  },
  {
    "Structure": "Cc1nc2cc(Cl)c(-c3nc(C)c(-c4cccnc4)[nH]3)cc2[nH]1",
    "Discrete label": "Mid"
  }
]

====

- Measurement notes: Retention time at 25 mM
- Assay type: ADME
- Test settings: 25000 µM
Retention time for assorted compounds

[
  {
    "Structure": "Cc1[nH]c(-c2ccccc2N)nc1-c1cccnc1",
    "Retention time [min]": 3.58
  },
  {
    "Structure": "COc1cc2c(cc1-c1nc(C)c(-c3cccnc3)[nH]1)nc(O)n2C",
    "Retention time [min]": 1.375
  },
  {
    "Structure": "COc1c(-c2nc(C)c(-c3cccnc3)[nH]2)cc(Cl)c2[nH]c(CCC(=O)O)nc12",
    "Retention time [min]": 3.68
  },
  {
    "Structure": "CCOc1ccccc1-c1nc(C)c(-c2cccnc2)[nH]1",
    "Retention time [min]": 6.01
  },
  {
    "Structure": "COc1c(-c2nc(C)c(-c3cccnc3)[nH]2)ccc2[nH]c(C)nc12",
    "Retention time [min]": 2.79
  },
  {
    "Structure": "COC(=O)Nc1ccccc1-c1nc(C)c(-c2cccnc2)[nH]1",
    "Retention time [min]": 8.79
  },
  {
    "Structure": "COc1c(-c2nc(C)c(-c3cccnc3)[nH]2)cc2nc(O)[nH]c2c1Cl",
    "Retention time [min]": 1.32
  },
  {
    "Structure": "COc1cc2[nH]c(C)nc2cc1-c1nc(C)c(-c2cccnc2)[nH]1",
    "Retention time [min]": 2.23
  },
  {
    "Structure": "Cc1ccccc1-c1nc(C)c(-c2cccnc2)[nH]1",
    "Retention time [min]": 5.2
  },
  {
    "Structure": "CNC(=O)Nc1ccccc1-c1nc(C)c(-c2cccnc2)[nH]1",
    "Retention time [min]": 6.34
  },
  {
    "Structure": "COc1c(-c2nc(C)c(-c3cccnc3)[nH]2)cc(Cl)c2[nH]c(C)nc12",
    "Retention time [min]": 9.36
  }
]
